This collection of values is drawn from the supplement of paper PMC9170038.

test system: MS2 coat protein; experiment: apparent KD of MS2 coat protein; designed switch direction (-1 OFF switch, 1 ON switch): -1; higher = weaker reporter binding; conditions: input ligand: FMN 200 uM
reported.endpoint: apparent KD of MS2 coat protein (nM)
Respond with the bare value in nM.

[[record]]
residue_sequence = "AAUUAGCAAGCGAGAUCCCACAUGAGGAUCACCCAUGUGCUCGUCUUAUAUAAGGUACUGUACGAAAGUACGGUACC [Mat - Sensor, turn-off var - Eli Mod - D31] (Eterna round: R97, puzzle: Sensor, turn-off variant 1)"
system_under_test = "MS2 coat protein"
numeric_result = 16.4


// next item, apparent KD of MS2 coat protein requested
Item: AAGAUACAUGAGGAUCACCCAUGUGAGGAUAUCAGCACGACCGUGAGGUCGAUAAGAAUGAGAAGGCACAAUGG [JL-ex1-4.51] (Eterna round: R97, puzzle: Exclusion 1) | apparent KD of MS2 coat protein: 103

---

test system: MS2 coat protein; assay: apparent KD of MS2 coat protein; designed switch direction (-1 OFF switch, 1 ON switch): -1; higher = weaker reporter binding; conditions: input ligand: FMN 200 uM
// values below are reported apparent KD of MS2 coat protein
Respond with the bare value in nM.

Reference set, count: 2
[[record]]
residue_sequence = "AAUUGGUUAGGAUAUCGGGAAUAUCACAUGAGGAUCACCCAUGUGACCUUUAUGGUGUCAUGAGAAGGGACGCGGA [Eternabot (L1) Solution 11] (Eterna round: R97, puzzle: Exclusion 5)"
system_under_test = "MS2 coat protein"
reported_endpoint = "apparent KD of MS2 coat protein"
numeric_result = 27.9

[[record]]
residue_sequence = "UAUGGUAAAGUCAGGAUAUACGUACGUCGUUCUAGGUAGAAGGGACAUGAGGAUCACCCAUGUAUGAUAGUAAA [Ex4 #35] (Eterna round: R97, puzzle: Brourd's mod of Exclusion 4)"
system_under_test = "MS2 coat protein"
reported_endpoint = "apparent KD of MS2 coat protein"
numeric_result = 36.1


// next item, apparent KD of MS2 coat protein requested
Item: AGGUUGGGCGCAUCUUGCCACAUGAGGAUCACCCAUGUUGUACCAUUAGAAGAGAACAAGCUCUUUGCUCGUCUUAU [Sensor 1 S2] (Eterna round: R97, puzzle: Sensor, turn-off variant 1) | apparent KD of MS2 coat protein: 32

---

test system: MS2 coat protein; assay: apparent KD of MS2 coat protein; higher = weaker reporter binding; settings: Eterna round: R107; input ligand: arginine 13.2 mM
// values below are reported apparent KD of MS2 coat protein
Respond with the bare value in nM.

[[record]]
residue_sequence = "CGCCACUCGAGUGAUCCUCACGAGUGGCUACGAGGACCGGUACGGCCGCCACUCGAAUUAACAUGAGGAUCACCCAUGUAAUCCA [Brourdmod09]"
unit_name = "nM"
numeric_result = 21.1


Item: UGGGUCGGAUGAGUAAAUUGUCCGACGUAUCGAGGACCGGUACGGCCGCCACUCGGUUGUACAUGAGGAUCACCCAUGUCAGGGU [#1 Same State - Tryptophan A Attempt #16 (HarryS)] | apparent KD of MS2 coat protein: 40.5

Item: AAUUGGGUUGGUGAGGUGGUUGGAGGCGAUACCAGCGUGGAAACACGCCCUUGGCAGCGCCAGGACAUGAGGAUCACCCAUGUAA [Praha] | apparent KD of MS2 coat protein: 32.1

Item: AUUCCAUAGGUGCAGUUGUUAAAUGGCGAUACCAGCGUGGAAACACGCCCUUGGCAGCGCCAAAACAUGAGGAUCACCCAUGUUA [Kladno] | apparent KD of MS2 coat protein: 48.3

Item: ACACAUGAGGAUCACCCAUGUGCGCUGGAAGGAGCGCAGAAUCAUGCAGGUAGGUCGCCAGUGCCCAUUACUAGAGGGAUAAGAG [Onriri] | apparent KD of MS2 coat protein: 44.5

Item: GCAUCCUAGUCGGCCGCCACUGACAUGAGGAUCACCCAUGUACAUGAGGAUCACCCAUGUUGUAGCAGGACCGGGACUAGGAUGC [SS Tryp B #17] | apparent KD of MS2 coat protein: 176
